Cited source: patent US20110212968A1

target: human orexin-2 receptor (Homo sapiens); construct: expressed in transfected cells; host or cells: CHO (Chinese hamster ovary) cells, kept under G418 selection; test: Intracellular calcium measurement (FLIPR Tetra), orexin receptor antagonistic activity, OX2; type: cell-based; conditions: CHO cells expressing human orexin-2 receptor, 3 nM orexin-A, conditions B
Sequence (O43614 whole entry): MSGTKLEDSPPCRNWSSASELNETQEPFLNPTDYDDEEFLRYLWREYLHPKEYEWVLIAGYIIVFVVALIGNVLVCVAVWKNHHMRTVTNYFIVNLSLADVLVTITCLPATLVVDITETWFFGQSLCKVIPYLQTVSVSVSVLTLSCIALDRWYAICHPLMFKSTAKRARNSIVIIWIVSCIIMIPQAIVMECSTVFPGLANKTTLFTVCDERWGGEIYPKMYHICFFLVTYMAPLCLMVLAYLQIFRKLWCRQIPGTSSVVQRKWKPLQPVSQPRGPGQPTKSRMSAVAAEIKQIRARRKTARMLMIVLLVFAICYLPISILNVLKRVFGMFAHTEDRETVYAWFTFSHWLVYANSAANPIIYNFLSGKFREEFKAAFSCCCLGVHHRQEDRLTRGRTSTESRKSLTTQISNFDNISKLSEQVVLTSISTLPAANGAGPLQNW
recorded_metric: IC50 (nM)
Numbers only, in nM.

>  <molecule>
COCCN(CCc1ccc(OC)c(OC)c1)C(=O)c1nc(N)sc1-c1cccc(C)c1 [Example 128]

>  <measurement_units>
nM

>  <IC50>
4

$$$$
>  <molecule>
COc1ccc(CCN(CC2CC2)C(=O)c2cccnc2-c2ccc(C)cc2)cc1OC [Example 395]

>  <measurement_units>
nM

>  <IC50>
10

$$$$
>  <molecule>
CCCN(CCc1ccc(OC)c(OC)c1)C(=O)c1nc(N)sc1-c1cccc(C)c1 [Example 110]

>  <measurement_units>
nM

>  <IC50>
2

$$$$

Take each entry in turn and give its IC50.
1. Cc1nc(C(=O)N(CCc2ccc(C(F)(F)F)cc2)CC2CC2)c(-c2ccc(C)c(C)c2)s1 [Example 192]
2. COc1cc(CCN(CC2CC2)C(=O)c2nc(C)sc2-c2ccc(C)c(C)c2)c(OC)cc1I [Example 213]
3. CCCN(CCc1ccc(OC)c(OC)c1)C(=O)c1nc(C)sc1-c1ccc(C)c(C)c1 [Example 111]
4. COc1ccc(CCN(CC2CC2)C(=O)c2cccnc2-c2cccc(C)c2)cc1OC [Example 394]
5. Cc1nc(C(=O)N(CCc2ccccc2Cl)CC2CC2)c(-c2ccc(C)c(C)c2)s1 [Example 180]
6. Cc1nc(C(=O)N(CCc2ccc3c(c2)OCCO3)CC2CC2)c(-c2ccc(C)c(C)c2)s1 [Example 198]
7. Cc1cccc(-c2sc(N)nc2C(=O)N(CCc2c[nH]c3c(F)cccc23)CC2CC2)c1 [Example 234]

Result:
[719, 153, 2, 4, 240, 65, 16]

Provide IC50 values for the following items, in order.
1. Cc1cccc(-c2sc(N)nc2C(=O)N(CCc2c[nH]c3c(C)cccc23)CC2CC2)c1 [Example 230]
2. COc1ccc(CCN(CC2CC2)C(=O)c2nc(C)sc2-c2ccc(C)c(C)c2)cn1 [Example 254]
3. COCCN(CCc1ccc(OC)c(OC)c1)C(=O)c1nc(C)sc1-c1ccc(C)c(C)c1 [Example 129]
4. Cc1cccc(-c2sc(N)nc2C(=O)N(CCc2c[nH]c3cccc(F)c23)CC2CC2)c1 [Example 231]
5. COc1ccc(CCN(CC2CC2)C(=O)c2nc(C)sc2-c2ccc(C)c(C)c2)cc1C [Example 202]
6. Cc1cccc(-c2sc(N)nc2C(=O)N(CCc2c[nH]c3cc(Cl)ccc23)CC2CC2)c1 [Example 224]

Result:
[18, 232, 5, 27, 22, 26]

Provide reported IC50 for each item, in the same order as listed.
1. COc1ccc(CCN(C(=O)c2nc(C)sc2-c2ccc(C)c(C)c2)C2CC2)cc1OC [Example 123]
2. COc1ccc(CCN(CCN(C)C)C(=O)c2nc(N)sc2-c2cccc(C)c2)cc1OC [Example 130]
3. CCC(Cc1ccc(OC)c(OC)c1)N(CC1CC1)C(=O)c1nc(N)sc1-c1cccc(C)c1 (stereo not shown) [Example 169]
4. COc1cccc(-c2ncccc2C(=O)N(CCc2ccc(OC)c(OC)c2)CC2CC2)c1 [Example 397]
5. CCCN(CCc1ccc(OC)c(OC)c1)C(=O)c1nc(C)sc1-c1cccc(F)c1 [Example 109]
6. COc1cccc(-c2cccnc2C(=O)N(CCc2ccc(OC)c(OC)c2)CC2CC2)c1 [Example 393]

Result:
1: 4; 2: 279; 3: 27; 4: 7; 5: 6; 6: 3
